The reported measurements were obtained from patent EP1724268A1.

Tested on: TGFβ signal
procedure summary: TGFβ signal inhibitory activity, (SBE)4-Luc reporter in A549 cells (Test Examples 1A and 1B)
Type: cell-based, human
conditions: Homo sapiens, A549; test compound 1 µM; TGFβ-1 2 ng/ml, 4 hr; Table 1A; read-out: TGFβ inhibition rate, %
Please respond with reported inhibition at 1 µM for every item in the list.
Kindly answer with a numeric value in %, unit omitted.

## Input Given the entry COc1ccc2c(Oc3cc(C)c(C)nc3-c3ccccn3)ccnc2c1 , report its measured inhibition at 1 µM.
## Output 97

## Input What do you get for c1ccc(-c2cc3nccc(Oc4cc5cccnc5nc4-c4ccccc4)c3s2)cc1 ?
## Output 81

## Input For COc1cc2nccc(Oc3cc4ccccc4nc3-c3ncccn3)c2cc1OC then?
## Output 62

## Input Entry to check: COc1cc2nccc(Oc3cc4cccnc4nc3-c3ccccc3)c2cc1C(N)=O
## Output 97

## Input Can you handle COc1cc2nccc(Oc3cc4cccnc4nc3-c3ccccc3)c2cc1F next?
## Output 93

## Input Consider next the compound Cc1cc(Oc2ccnc3cc(-c4ccccc4)sc23)c(-c2ccccn2)nc1C in the same way.
## Output 89

## Input Next compound up: COc1cc2ncnc(Oc3cc(C)c(C)nc3-c3ccccn3)c2cc1OC
## Output 89

## Input Moving on to COc1cc2nccc(Oc3cc(C)c(C)nc3-c3ccccn3)c2cc1C(N)=O
## Output 81

## Input Another compound to check: Fc1ccc2nccc(Oc3cc4cccnc4nc3-c3ccccc3)c2c1
## Output 43

## Input Queued: COc1cc2ncnc(Oc3cc(C)c(C)nc3-c3cccnc3)c2cc1OC
## Output 28

## Input Here is the next compound: CCc1ccc(Oc2ccnc3cc(OC)c(OC)cc23)c(-c2ccccn2)n1
## Output 98

## Input Next up: Cc1cc(Oc2ccnc3ccccc23)c(-c2cccnc2)nc1C
## Output 45
